# Study System: GRASP, Q7Z6J2
# Sequence (Q7Z6J2 96-193): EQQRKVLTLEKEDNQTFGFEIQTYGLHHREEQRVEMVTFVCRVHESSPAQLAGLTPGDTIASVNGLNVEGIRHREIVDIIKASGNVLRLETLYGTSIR
# Protocol: holdup assay
# Set-up: key: below the threshold = too weak to quantify, mostly under pKd 3.1 to 4
# Condition Notes: plain residues with an end cap or a label only (N-terminal biotin on a linker: ttds)
Endpoint Label: pKd

Worked examples follow.
TVASEKESVM [SLC1A5, Q15758] : below the threshold
IYVPEAQTRL [DLGAP4, Q9Y2H0] : 4.2
RSLEEEESQL [GRASP, Q7Z6J2] : 3.99
QSARYRDTEL [TJP2, Q9UDY2] : below the threshold
VLRLQSETSV [VANGL1, Q8TAA9] : below the threshold
GQDSREETQL [KCNT2, Q6UVM3] : below the threshold

query: Quick check: pKd of PKTPPTDTSV [KIR3DL3, Q8N743] ?
result: below the threshold

query: Same read-out for SRPQRTQTQV [HPV67-E6, A4U7F2] ?
result: below the threshold
